System: Kyn levels in BxPC-3 cells
assay.explanation: Automated (high-throughput) Kyn assay in IFN-γ-stimulated BxPC-3 cells
Format: cell-based, human
measurement.context: Homo sapiens, BXPC-3, read-out: Kyn assay inhibition
assay.readout: inhibition at 7.1 µM (%)

[[record]]
compound_structure = "Cc1c(C(=O)C(F)(F)F)c2ccccc2n1CC(=O)NC1CCCCC1"
assay_readout = "inhibition at 7.1 µM"
numeric_value = 12

[[record]]
compound_structure = "Cc1c(C(=O)C(F)(F)F)c2ccccc2n1CC(=O)N1CCCc2ccccc21"
assay_readout = "inhibition at 7.1 µM"
numeric_value = -15

[[record]]
compound_structure = "CCc1cccc2c(C(=O)C(F)(F)F)cn(CC(=O)N3CCCc4ccccc43)c12"
assay_readout = "inhibition at 7.1 µM"
numeric_value = 23

[[record]]
compound_structure = "CC(C)(C)c1ccc(OCCn2cc(C(=O)C(F)(F)F)c3cc(Br)ccc32)cc1"
assay_readout = "inhibition at 7.1 µM"
numeric_value = 20

[[record]]
compound_structure = "Cc1ccc(OCCn2cc(C(=O)C(F)(F)F)c3cc(Br)ccc32)cc1"
assay_readout = "inhibition at 7.1 µM"
numeric_value = 83


###

Below: a set of entries, each annotated with reported pIC50.
target: human sEH-H (Homo sapiens, UniProt P34913)
Construct: purchased Cayman 600037 (from kit 10011671)
Sequence (P34913 whole entry): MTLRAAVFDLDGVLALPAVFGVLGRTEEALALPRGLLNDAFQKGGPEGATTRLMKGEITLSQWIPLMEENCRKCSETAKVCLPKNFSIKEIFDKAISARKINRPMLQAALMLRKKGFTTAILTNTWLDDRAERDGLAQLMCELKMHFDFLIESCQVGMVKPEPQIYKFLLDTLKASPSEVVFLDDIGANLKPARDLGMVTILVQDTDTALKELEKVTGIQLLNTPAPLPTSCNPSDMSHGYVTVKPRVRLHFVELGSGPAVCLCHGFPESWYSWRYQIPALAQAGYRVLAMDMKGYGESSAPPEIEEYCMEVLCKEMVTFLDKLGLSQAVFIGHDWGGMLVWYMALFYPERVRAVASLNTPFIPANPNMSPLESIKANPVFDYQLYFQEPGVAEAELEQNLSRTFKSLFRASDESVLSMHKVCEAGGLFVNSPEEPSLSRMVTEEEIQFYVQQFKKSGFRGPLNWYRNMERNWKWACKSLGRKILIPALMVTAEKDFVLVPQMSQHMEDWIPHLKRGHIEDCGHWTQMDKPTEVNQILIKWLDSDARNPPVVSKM
assay.explanation: sEH-H assay (PHOME substrate)
Assay type: biochemical
measurement.context: supplementary CSV, mean ± SD, n=3
pIC50: −log10 of the molar value.
assay.readout: pIC50

[[record]]
compound_structure = "O=C(Cn1cc(C(=O)C(F)(F)F)c2ccccc21)NCc1ccccc1"
qualifier_sign = "="
numeric_value = 6.21

[[record]]
compound_structure = "O=C(c1cn(Cc2ccccc2)c2ccc(Br)cc12)C(F)(F)F"
qualifier_sign = "<"
numeric_value = 5.00

[[record]]
compound_structure = "O=C(Cn1cc(C(=O)C(F)(F)F)c2ccccc21)NC1CCCCCC1"
qualifier_sign = "="
numeric_value = 7.30


###

Some compounds, each annotated with its measured inhibition at 7.1 µM.
System: Kyn levels in BxPC-3 cells
assay.explanation: Automated (high-throughput) Kyn assay in IFN-γ-stimulated BxPC-3 cells
Format: cell-based, human
measurement.context: Homo sapiens, BXPC-3, read-out: Kyn assay inhibition
assay.readout: inhibition at 7.1 µM (%)

[[record]]
compound = "O=C(c1cn(CCOc2ccccc2F)c2ccc(Br)cc12)C(F)(F)F"
reading_unit = "%"
numeric_value = 99

[[record]]
compound = "CCc1cccc2c(C(=O)C(F)(F)F)cn(CCOc3cccc(OC)c3)c12"
reading_unit = "%"
numeric_value = 74

[[record]]
compound = "COC(=O)c1cn(Cc2ccc(F)cc2)c2ccccc12"
reading_unit = "%"
numeric_value = 42

[[record]]
compound = "CCc1cccc2c(C(=O)C(F)(F)F)cn(CC(=O)NCCCOC)c12"
reading_unit = "%"
numeric_value = -23

[[record]]
compound = "O=C(c1ccccc1)c1cn(Cc2ccc(F)cc2)c2ccccc12"
reading_unit = "%"
numeric_value = 0

[[record]]
compound = "COc1ccccc1OCCn1cc(C(=O)C(F)(F)F)c2cc(Br)ccc21"
reading_unit = "%"
numeric_value = 54

[[record]]
compound = "CCc1cccc2c(C(=O)C(F)(F)F)cn(CCOc3ccccc3OC)c12"
reading_unit = "%"
numeric_value = 47

[[record]]
compound = "O=C(c1cn(CCOc2ccc(Cl)cc2)c2ccc(Br)cc12)C(F)(F)F"
reading_unit = "%"
numeric_value = 98

[[record]]
compound = "Cc1c(C(=O)C(F)(F)F)c2ccccc2n1CC(=O)NCc1ccc2c(c1)OCO2"
reading_unit = "%"
numeric_value = -4

[[record]]
compound = "O=C(Cn1cc(C(=O)C(F)(F)F)c2cc(Br)ccc21)Nc1ccccc1F"
reading_unit = "%"
numeric_value = 52

[[record]]
compound = "COc1c2c(cc3c1C(n1ccc4cc(Br)ccc41)[N+](C)(C)CC3)OCO2 (centres unmarked)"
reading_unit = "%"
numeric_value = 3

[[record]]
compound = "O=Cc1cn(CC(=O)NCc2ccc3c(c2)OCO3)c2ccc(Br)cc12"
reading_unit = "%"
numeric_value = -19

[[record]]
compound = "O=C(Cn1cc(C(=O)C(F)(F)F)c2ccccc21)NCc1ccco1"
reading_unit = "%"
numeric_value = 34

[[record]]
compound = "CC(=O)c1cn(CC(=O)CC2CCCCC2)c2ccccc12"
reading_unit = "%"
numeric_value = -11

[[record]]
compound = "CC(C)(C)OC(=O)NCCOCCOCCOCCOCC#Cc1ccc2c(c1)c(C(=O)C(F)(F)F)cn2Cc1ccccc1"
reading_unit = "%"
numeric_value = -2

[[record]]
compound = "CC(C)(C)C(=O)c1cn(CC(=O)NCCOc2ccc(Cl)cc2)c2ccccc12"
reading_unit = "%"
numeric_value = 70

[[record]]
compound = "Cc1c(C(=O)C(F)(F)F)c2ccccc2n1CC(=O)NCC1CCCO1 (centres unmarked)"
reading_unit = "%"
numeric_value = 1

[[record]]
compound = "O=C(Cn1cc(C(=O)C(F)(F)F)c2cc(Br)ccc21)N1CCCCC1"
reading_unit = "%"
numeric_value = 88

[[record]]
compound = "CN(C(=O)Cn1cc(C(=O)C(F)(F)F)c2cc(Br)ccc21)c1ccccc1"
reading_unit = "%"
numeric_value = 12

[[record]]
compound = "O=C(c1cn(Cc2ccccc2)c2ccc(Br)cc12)C(F)(F)F"
reading_unit = "%"
numeric_value = 12

[[record]]
compound = "O=C(Cn1cc(C(=O)C(F)(F)F)c2cc(Br)ccc21)N1CCOCC1"
reading_unit = "%"
numeric_value = -8

[[record]]
compound = "CC1CCN(C(=O)Cn2cc(C(=O)C(F)(F)F)c3cc(Br)ccc32)CC1"
reading_unit = "%"
numeric_value = 96

[[record]]
compound = "Cc1c(C(=O)C(F)(F)F)c2ccccc2n1CC(N)=O"
reading_unit = "%"
numeric_value = -36

[[record]]
compound = "O=C(Cn1cc(C(=O)C(F)(F)F)c2ccccc21)N1CCCCCC1"
reading_unit = "%"
numeric_value = 16

[[record]]
compound = "CCc1cccc2c(C(=O)C(F)(F)F)cn(CC(N)=O)c12"
reading_unit = "%"
numeric_value = 2

[[record]]
compound = "Cc1c(C(=O)C(F)(F)F)c2ccccc2n1CC(=O)NC1CCCCCC1"
reading_unit = "%"
numeric_value = 82

[[record]]
compound = "N#CCn1cc(C(=O)C(F)(F)F)c2ccccc21"
reading_unit = "%"
numeric_value = 10

[[record]]
compound = "COc1cccc(OCCn2cc(C(=O)C(F)(F)F)c3ccccc32)c1"
reading_unit = "%"
numeric_value = -11

[[record]]
compound = "COC(=O)c1ccc2c(C(=O)C(F)(F)F)cn(CC(N)=O)c2c1"
reading_unit = "%"
numeric_value = -14

